Values compiled from patent US5639887A.

# test protocol: Limit of solubility of bisantrene
# Assay type: physicochemical
# cond: cell culture medium; cell culture maintenance
measured property: solubility
Please provide the amount together with its unit, number first.

Just so you know, measured solubility for C(=N\NC1=NCCN1)/c1c2ccccc2c(/C=N/NC2=NCCN2)c2ccccc12 came out at 20 µM

---

# Tested on: human epidermoid carcinoma KB/8.5
# test protocol: In vivo evaluation of MDR-1 reversal agents against human epidermoid carcinoma KB/8.5 implanted SC in athymic nude mice
# Design: species or system human (tumor in athymic nude mice)
# cond: doxorubicin 8 mg/kg IV + compound […] SC at -2 h and +2 h
measured property: Relative Tumor Growth Day 21

> print(dat)
                                   compound                        system.name    val
1  COc1ccc(C(C#N)(CCCCCN2Cc3cc(Cl)c(Cl)cc3C2)Sc2ccc(C)cc2)cc1OC (centres unmarked)  human epidermoid carcinoma KB/8.5   9.52
2  COc1cc2c(cc1OC)CN(CCCCCC(Sc1ccc(C)cc1)c1ccc(OC(F)(F)F)cc1)CC2 (centres unmarked)  human epidermoid carcinoma KB/8.5  12.75
3  COc1ccc(C(C#N)(CCCCCN2CCc3cc(OC)c(OCCCl)cc3C2)Sc2ccc(C)cc2)cc1OC (centres unmarked)  human epidermoid carcinoma KB/8.5  19.93
4  COc1ccc(C(C#N)(CCCCCN2CCc3cc(OC)c(OC)cc3C2)Sc2ccc(C)cc2)cc1OC (centres unmarked)  human epidermoid carcinoma KB/8.5   8.58
5  CCC(CCCCCN1CCc2cc(OC)c(OC)cc2C1)(Sc1ccc(C)cc1)c1ccc(OC)c(OC)c1 (centres unmarked)  human epidermoid carcinoma KB/8.5  10.27
6  COc1ccc(C(CCCCCCN2CCc3cc(OC)c(OC)cc3C2)Sc2ccc(C)cc2)cc1O (centres unmarked)  human epidermoid carcinoma KB/8.5   9.58
7  COc1ccc(C(CCCCCN2CCc3cc(OC)c(OC)cc3C2)SC2CCCCC2)cc1OC (centres unmarked)  human epidermoid carcinoma KB/8.5   8.88

Could you now consider this next compound?
Relative Tumor Growth Day 21 of COc1ccc(C(CCCCCCN2CCc3cc(OC)c(OC)c(OC)c3C2)Sc2ccc(C)cc2)cc1OC (centres unmarked) , assay on human epidermoid carcinoma KB/8.5, is 9.81
